Header: IC50 / Vascular endothelial growth factor receptor 2 (Homo sapiens) / multiple publications

compound: O=C(Nc1cccc(C(F)(F)F)c1)Nc1ccc(Cl)c(C(=O)Nc2cnc(Nc3cccnc3)nc2)c1
IC50: 20.1 nM
--
compound: COc1cc2nccc(Oc3ccc(NC(=O)c4cn(C5CCCC5)c(C)c(-c5ccc(F)c(Cl)c5)c4=O)cc3F)c2nc1OC
IC50: < 100 nM
--
compound: CN1CCC(Nc2ccc(NC(=O)Nc3ccc(Oc4ccnc(NC(=O)C5CC5)c4)c(F)c3)cc2C(F)(F)F)CC1
IC50: 12 nM
--
compound: COc1cc(C2=C(c3cn(CCCN4CCN(C)CC4)c4ccccc34)C(=O)NC2=O)cc(OC)c1OC
IC50: 2830 nM
--
compound: Cn1cc(-c2cc(Oc3ccc(F)c(NC(=O)c4ccc(Cl)c(C(F)(F)F)c4)c3)ncn2)cn1
IC50: > 10000 nM
--
compound: C[C@@H](Nc1ncnc2[nH]c(-c3ccc(C(=O)NCCNCCCCCCC(=O)NO)cc3)cc12)c1ccccc1
IC50: 100 to 1000 nM
--
compound: CC1(NC(=O)c2ncccc2Cl)CCN(c2ccc(-c3cc(N4CC(C(C)(C)O)C4)cn4ncc(C#N)c34)cn2)CC1
IC50: 61 nM
--
compound: Cn1cc(-c2cc(-c3ccc(N4C5CC6CC4CC(NC(=O)c4ncccc4Cl)(C6)C5)nc3)c3c(C#N)cnn3c2)cn1
IC50: ≤ 10 nM
--
compound: C=CC(=O)Nc1cc2c(Nc3ccc(Br)cc3F)ncnc2cc1OCC1CNC(=O)O1 (centres unmarked)
IC50: 587 nM
--
compound: COc1cc(OC)cc(N(CC#Cc2ncccn2)c2ccc3ncc(-c4cccnc4)nc3c2)c1
IC50: > 1000 nM
--
compound: O=C(Nc1ccc(Oc2ccnc3ccc4c(c23)OCCO4)c(F)c1)c1cccn(-c2ccc(F)cc2)c1=O
IC50: 50 to 500 nM
--
compound: CCCS(=O)(=O)Nc1ccc(F)c(C(=O)c2c[nH]c3ncc(-c4ccc(N5CCCC5)nc4)cc23)c1F
IC50: ≤ 10000 nM
--
compound: CCOc1ccn(-c2ccc(F)cc2)c(=O)c1C(=O)Nc1ccc(Oc2ccnc3cc(OCCCO)c4c(c23)OCCO4)c(F)c1
IC50: ≤ 50 nM
--
compound: COc1ccc(F)c(C(=O)c2c[nH]c3ncccc23)c1
IC50: ≤ 10000 nM
--
compound: CCNc1cc(-c2ccc(N3CC4CC(C3)N4Cc3ccc(-n4cc(F)cn4)nc3)nc2)c2c(C#N)cnn2c1
IC50: 39 nM
--
compound: CCCS(=O)(=O)Nc1ccc(F)c(C(=O)c2c[nH]c3ncc(-c4ccnc(F)c4)cc23)c1F
IC50: ≤ 10000 nM
--
compound: C[C@@H](Nc1ncnc2[nH]c(-c3ccc(C(=O)NCCNCC(=O)NO)cc3)cc12)c1ccccc1
IC50: 100 to 1000 nM
--
compound: Cc1c(Nc2ccnc3cc(-c4ccc(OCCCN(C)C)cc4)oc23)ccc2[nH]ccc12
IC50: < 300 nM
--
compound: O=C(c1cccc(Cl)c1Cl)c1c[nH]c2nccc(-c3cccnc3)c12
IC50: ≤ 10000 nM
--
compound: CCOc1ccn(-c2ccc(F)cc2)c(=O)c1C(=O)Nc1ccc(Oc2ccnc3cc(OCC4(N)CC4)c4c(c23)OCCO4)c(F)c1
IC50: 50 to 500 nM
--
compound: O=C(Nc1ccc(Oc2cc(-c3nnco3)ncn2)cc1)Nc1cc(C(F)(F)F)c(Cl)cc1OCCN1CCCC1
IC50: ≤ 10000 nM
--
compound: C=CC(=O)Nc1cc2c(Nc3ccc(Br)cc3F)ncnc2cc1OCCNC(=O)OC
IC50: 84 nM
--
compound: COc1cc2nccc(Oc3ccc(NC(=S)NCC4CC4)c(Cl)c3)c2cc1C(N)=O
IC50: < 50 nM
--
compound: COc1cc(CNc2ccc(Cc3c[nH]c4ncncc34)c(F)n2)cc(C(F)(F)F)c1
IC50: ≤ 10000 nM
--
compound: Cc1cc(Oc2ccnc(NC(=O)C3CC3)c2)ccc1NC(=O)Nc1cc(OC(F)(F)F)ccc1F
IC50: 6.1 nM
--
compound: CCCS(=O)(=O)Nc1cccc(C(=O)c2c[nH]c3ncc(C)cc23)c1F
IC50: ≤ 10000 nM

---

Header: IC50 / Vascular endothelial growth factor receptor 2 (Homo sapiens, UniProt P35968) / multiple publications
Each record is given Yes if its reported IC50 is strictly below 20 nM. Records at or above 20 nM are given No.

molecule: C=CC(=O)Nc1cc2c(Nc3ccc(Br)c(Cl)c3F)ncnc2cc1OCCNC(=O)N1CCOCC1
system.under.test: Vascular endothelial growth factor receptor 2 (Homo sapiens, UniProt P35968)
class.name: No

molecule: CC(F)(F)c1cncc(NC(=O)Nc2ccc(Oc3ccnc(NC(=O)C4CC4)c3)cc2)c1
system.under.test: Vascular endothelial growth factor receptor 2 (Homo sapiens, UniProt P35968)
class.name: Yes

molecule: O=C(Nc1ccc(F)c(C(F)(F)F)c1)Nc1ccc(Oc2cc(NC(=O)C3CC3)ncn2)cc1Cl
system.under.test: Vascular endothelial growth factor receptor 2 (Homo sapiens, UniProt P35968)
class.name: Yes

molecule: CC(O)COc1cc(-c2ccc(N3C[C@H]4CN(C(=O)c5ncccc5Cl)C[C@H]4C3)nc2)c2c(C#N)cnn2c1 (stereo partly drawn)
system.under.test: Vascular endothelial growth factor receptor 2 (Homo sapiens, UniProt P35968)
class.name: No

molecule: CCN(CC)CCNC(=O)c1c(C)[nH]c2c1CCC/C2=C1/C(=O)Nc2ccc(C)cc21
system.under.test: Vascular endothelial growth factor receptor 2 (Homo sapiens, UniProt P35968)
class.name: Yes

molecule: COc1cc(OC)cc(N(CCCO)c2ccc3ncc(-c4ccnc(C(=O)NCCOCCO)c4)nc3c2)c1
system.under.test: Vascular endothelial growth factor receptor 2 (Homo sapiens, UniProt P35968)
class.name: No

molecule: Cc1cccc(C(=O)Nc2cccc(C#Cc3ccc4nccn4n3)c2)c1
system.under.test: Vascular endothelial growth factor receptor 2 (Homo sapiens, UniProt P35968)
class.name: No

molecule: CC(C)(O)c1ccc(-c2cc(-c3cnc(N4C5CC6CC4CC(NC(=O)c4ncccc4Cl)(C6)C5)cn3)c3c(C#N)cnn3c2)nc1
system.under.test: Vascular endothelial growth factor receptor 2 (Homo sapiens, UniProt P35968)
class.name: No

---

Header: IC50 / Vascular endothelial growth factor receptor 2 (Homo sapiens) / multiple publications

molecule: C=CCNC(=O)NCCOc1cc2ncnc(Nc3ccc(Br)cc3F)c2cc1NC(=O)C=C
IC50: 155 nM

molecule: COc1cc(OC)cc(N(CCCNCC(F)(F)F)c2ccc3ncc(-c4ccn(C)c4)nc3c2)c1
IC50: 126 nM

molecule: CCN(CC)CCNC(=O)c1cc(NC(=O)Nc2cccc(Oc3cc(-c4nnco4)ncn3)c2)cc(C(F)(F)F)c1
IC50: ≤ 10000 nM

molecule: Cc1ccc(Oc2cc(NC(=O)C3CC3)ncn2)cc1NC(=O)Nc1ccc(Cl)c(C(F)(F)F)c1
IC50: 7 nM

molecule: Cn1cc(-c2cnc3[nH]cc(C(=O)c4cccc(NS(=O)(=O)C5CCCCC5)c4)c3c2)cn1
IC50: ≤ 10000 nM

molecule: Cc1cccc(Nc2nc3c(NCCCN(C)C)nccn3n2)c1
IC50: 3000 to 50000 nM

molecule: Cn1cc(-c2cc(-c3ccc(N4C[C@@H]5[C@H](C4)[C@@H]5NS(=O)(=O)c4c(F)cccc4Cl)nc3)c3c(C#N)cnn3c2)cn1
IC50: 10 to 50 nM

molecule: COc1cc2nccc(Oc3ccc4c(C(=O)N5CC(F)(F)C5)coc4c3)c2cc1C(N)=O
IC50: 200 to 1000 nM

molecule: Cc1cnc2[nH]cc(C(=O)c3c(F)ccc(NS(=O)(=O)c4c(F)cccc4F)c3F)c2c1
IC50: ≤ 10000 nM

molecule: Cn1ccc(-c2cc(Oc3cccc(NC(=O)Nc4ccc(Cl)c(C(F)(F)F)c4)c3)ncn2)n1
IC50: > 10000 nM

molecule: Cc1ccc(NC(=O)Nc2ccc(Oc3ccnc(NC(=O)C4CC4)c3)cc2)cc1C(F)(F)F
IC50: 10 nM

molecule: Nc1nc(Nc2ccc(O)cc2F)cc(-c2cc(-c3ccc(O)cc3)ccc2O)n1
IC50: 1000 to 20000 nM

molecule: Oc1ccc(F)c(C(O)c2c[nH]c3ncc(-c4cccnc4)cc23)c1F (stereo not drawn)
IC50: ≤ 10000 nM

molecule: Cc1nn(C)c(C)c1-c1cc(Oc2cccc(NC(=O)Nc3ccc(Cl)c(C(F)(F)F)c3)c2)ncn1
IC50: > 10000 nM

molecule: COc1cc2nccc(Oc3ccc(NC(=O)c4cn(CCF)c(=O)n(-c5ccc(F)cc5)c4=O)cc3F)c2c2c1OCCO2
IC50: 500 to 5000 nM

molecule: C[C@@H](Nc1nc(Nc2ccc(S(C)=NS(=O)(=O)C(F)(F)F)cc2)ncc1Br)C(C)(C)O (mixture of isomers)
IC50: 70 nM

molecule: COc1cccc(Cc2c[nH]c3ncc(-c4cccs4)cc23)c1
IC50: ≤ 10000 nM

molecule: COc1cc2nccc(Oc3ccc(NC(=O)c4c5n(cc(C6=CCCC6)c4=O)CCOC5)cc3)c2nc1OC
IC50: > 300 nM

molecule: COc1cc2nccc(Oc3ccc4c(C(=O)N5CC[C@@H](F)C5)coc4c3)c2cc1C(N)=O
IC50: 200 to 1000 nM

molecule: C=C(C)n1c(C)cc(C)c(C(=O)Nc2ccc(Oc3ccnc4cc(OC)cnc34)c(F)c2)c1=O
IC50: 100 to 300 nM

molecule: CCc1cnc2[nH]cc(C(=O)c3cccc(OC)c3)c2c1
IC50: ≤ 10000 nM
